target: UniProtKB P17252; assay: PKCα kinase Caliper assay; type: biochemical; settings: PKCα Caliper assay; read-out: PKC IC50
Endpoint label: pIC50
Scale: negative log10 of molar concentration, which is what pIC50 denotes.

Entry CC(C)[C@@H]1O[C@H](c2ccncc2NC(=O)c2nc(-c3ccccc3)cnc2N)C[C@H](N)[C@H]1O [Example 240] has what pIC50?
6.54

Entry CC[C@H]1O[C@@H](c2ccncc2NC(=O)c2nc(-c3ccccc3)cnc2N)C[C@@H](N)[C@@H]1O [Example 343] has what pIC50?
7.64

Entry C[C@@H]1O[C@H](c2ccncc2NC(=O)c2nc(-c3ccccc3)cnc2N)C[C@H](N)[C@@]1(C)O [Example 229] has what pIC50?
6.43

###

target: PIM1 (Homo sapiens); test: KinaseGlo Pim1 ATP depletion assay; format: biochemical
Sequence (P11309 whole entry): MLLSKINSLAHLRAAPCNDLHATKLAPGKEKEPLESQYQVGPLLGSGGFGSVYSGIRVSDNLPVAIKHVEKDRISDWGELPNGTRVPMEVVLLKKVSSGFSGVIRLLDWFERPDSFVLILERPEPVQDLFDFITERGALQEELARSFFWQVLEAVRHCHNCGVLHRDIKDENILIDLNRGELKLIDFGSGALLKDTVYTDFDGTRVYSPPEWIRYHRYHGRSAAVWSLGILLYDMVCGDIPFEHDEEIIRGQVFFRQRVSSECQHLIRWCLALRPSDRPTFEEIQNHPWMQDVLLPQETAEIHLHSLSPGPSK
Endpoint label: log10 of IC50 (log10 of the value in nM)
Scale: decimal log of IC50, IC50 in nM.

Entry Nc1cnc(-c2c(F)cccc2F)nc1C(=O)Nc1cnccc1C1=C[C@@H](O)[C@H](O)[C@@H](CCl)O1 has what log10 of IC50?
0.00

Entry O=C(Nc1cnccc1[C@@H]1OCC[C@H](CO)O1)c1csc(-c2c(F)cccc2F)n1 has what log10 of IC50?
1.15

Entry Nc1cnc(-c2c(F)cccc2F)nc1C(=O)Nc1cnccc1[C@H]1C[C@@H](O)[C@H](O)[C@@H](C2CC2)O1 has what log10 of IC50?
0.80

Entry C[C@H]1[C@H](C)O[C@H](c2ccncc2NC(=O)c2csc(-c3c(F)cccc3F)n2)C[C@@H]1O (stereo in doubt) has what log10 of IC50?
0.00

Entry O=C(Nc1cnccc1[C@H]1C[C@@H](O)[C@H](O)[C@@H](C2CC2)O1)c1ccc(F)c(-c2c(F)cccc2F)n1 has what log10 of IC50?
0.00

Entry CC[C@H]1O[C@@H](c2ccncc2NC(=O)c2nc(-c3c(F)cccc3F)c(F)cc2N)C[C@@H](O)[C@]1(C)O has what log10 of IC50?
-0.22

Entry CC[C@]1(O)[C@H](O)C[C@H](c2ccncc2NC(=O)c2nc(-c3ccccc3)cnc2N)O[C@@H]1C has what log10 of IC50?
0.00

Entry N#CC[C@H]1O[C@@H](c2ccncc2NC(=O)c2nc(-c3c(F)cccc3F)c(F)cc2N)C[C@@H](O)[C@@H]1O [Example 152] has what log10 of IC50?
0.11

###

biological target: PIM1 (Homo sapiens); assay: KinaseGlo Pim1 ATP depletion assay; type: biochemical
Endpoint label: pIC50
Scale: negative log10 of molar concentration, which is what pIC50 denotes.

Query the reported pIC50 for PIM1 (Homo sapiens); item: CC[C@H]1O[C@@H](c2ccncc2NC(=O)c2nc(-c3c(F)cccc3F)ncc2N)C[C@@H](O)[C@]1(C)O [Example 168]
8.52

Query the reported pIC50 for PIM1 (Homo sapiens); item: N#C[C@H]1O[C@@H](c2ccncc2NC(=O)c2nc(-c3nccs3)ccc2N)C[C@@H](O)[C@@H]1O [Example 150]
7.24

Query the reported pIC50 for PIM1 (Homo sapiens); item: O=C(Nc1cnccc1[C@H]1C[C@@H](O)[C@H](O)[C@@H](CCl)O1)c1ccnc(-c2c(F)cccc2F)n1 [Example 37]
7.92

###

Give measured IC50 for each item. Keep answers brief.
target: PIM3 (Homo sapiens); assay: KinaseGlo Pim3 ATP depletion assay; assay type: biochemical
Unit nM implied. Number only.

Entry COC[C@H]1O[C@@H](c2ccncc2NC(=O)c2ccc(F)c(-c3c(F)cccc3F)n2)C[C@@H](O)[C@@H]1O has what IC50?
28

Entry CC[C@@]1(O)[C@H](O)C[C@H](c2ccncc2NC(=O)c2ccc(F)c(-c3c(F)cccc3F)n2)O[C@@H]1C has what IC50?
5

Entry O=C(Nc1cnccc1[C@H]1CCCCO1)c1ccc(F)c(-c2c(F)cccc2F)n1 has what IC50?
400

Entry CC1C(c2ccncc2NC(=O)c2ccc(F)c(-c3c(F)cccc3F)n2)OC(C)[C@H](O)C1O (stereo in doubt) [Example 66] has what IC50?
8

Entry O=C(Nc1cnccc1[C@@H]1C[C@H](O)[C@]2(O)CCC[C@@H]2O1)c1ccc(F)c(-c2c(F)cccc2F)n1 has what IC50?
144

Entry C[C@H]1O[C@@H](c2ccncc2NC(=O)c2ccc(F)c(-c3c(F)cccc3F)n2)[C@H](F)[C@@H](O)[C@]1(C)O (stereo in doubt) has what IC50?
53

Entry Nc1cc(F)c(-c2c(F)cccc2F)nc1C(=O)Nc1cnccc1[C@H]1C[C@@H](O)[C@H](O)[C@@H](CCl)O1 has what IC50?
1

Entry CC[C@H]1O[C@@H](c2ccncc2NC(=O)c2nc(-c3nccs3)ccc2N)C[C@@H](O)[C@@H]1O [Example 140] has what IC50?
19

Entry Nc1ncc(-c2ccccc2)nc1C(=O)Nc1cnccc1[C@@H]1C[C@H](O)[C@]2(O)CCC[C@@H]2O1 has what IC50?
610

Entry CC[C@]1(O)[C@H](O)C[C@H](c2ccncc2NC(=O)c2nc(-c3ccnnc3)ccc2N)O[C@@H]1C has what IC50?
260

Entry O=C(Nc1cnccc1[C@H]1C[C@@H](O)[C@@]2(O)CCCC[C@H]2O1)c1ccc(F)c(-c2c(F)cccc2F)n1 has what IC50?
1.6

Entry N#C[C@H]1O[C@@H](c2ccncc2NC(=O)c2nc(-c3c(F)cccc3F)ncc2N)C[C@@H](O)[C@@H]1O has what IC50?
20.4

Entry O=C(Nc1cnccc1[C@@]1(C(F)(F)F)C[C@@H](O)C=CO1)c1ccc(F)c(-c2c(F)cccc2F)n1 has what IC50?
1770

Entry CC[C@@H]1O[C@H](c2ccncc2NC(=O)c2nc(-c3c(F)cccc3F)ncc2N)C[C@H](O)[C@@]1(C)O has what IC50?
86.7
